test system: HCT-8 host cells (Hs18S); conditions: primary screening at 10 uM, treated vs control

{"molecule": "COc1cc(O)c2c(c1)C(=O)c1cc(C)cc(O)c1C2=O", "Hs18S ΔCT": 0.20}
{"molecule": "COc1ccc(-c2oc3cc(OC)c(OC)c(OC)c3c(=O)c2OC)cc1", "Hs18S ΔCT": 0.24}
{"molecule": "CC(C)[C@@H](C)/C=C/[C@@H](C)[C@H]1CC[C@H]2C3=CC=C4C[C@@H](O)CC[C@]4(C)[C@H]3CC[C@]12C", "Hs18S ΔCT": -0.03}
{"molecule": "COc1ccc2c3c1O[C@H]1C[C@@H](O)C=C[C@@]31CCN(C)C2", "Hs18S ΔCT": -0.34}
{"molecule": "COC[C@]12CN(C=O)[C@@H]3[C@@H]4[C@H](OC)[C@H]1[C@@]3([C@@H](OC)C[C@H]2O)[C@@H]1C[C@@]2(O)[C@H](OC(=O)c3ccccc3)[C@@H]1[C@]4(OC(C)=O)[C@@H](O)[C@@H]2OC", "Hs18S ΔCT": 0.05}
{"molecule": "O=c1c(O)c(-c2ccc(O)c(O)c2)oc2cc(O)cc(O)c12", "Hs18S ΔCT": 0.34}
{"molecule": "COc1cc2c(cc1OC)C1C(=O)c3c(O)cc4c(c3OC1CO2)C=CC(C)(C)O4 (centres unmarked)", "Hs18S ΔCT": 0.01}
{"molecule": "COC(=O)/C=C/c1cc(OC)c(OC)c(OC)c1 [METHYL TRIMETHOXYCINNAMATE]", "Hs18S ΔCT": 0.04}
{"molecule": "C[C@]12C=CC(=O)C=C1CC[C@@H]1[C@@H]2CC[C@]2(C)C(=O)CC[C@@H]12", "Hs18S ΔCT": 0.01}
{"molecule": "CC(C)=CCCC1(C)C=Cc2c(O)c3c(c(CC=C(C)C)c2O1)OC12C(=CC4CC1C(C)(C)OC2(C/C=C(/C)C(=O)O)C4O)C3=O (centres unmarked) [Dihydrogambogic acid]", "Hs18S ΔCT": -0.60}
{"molecule": "CC(=O)Oc1c2c(c(CC=C(C)C)c3c1C(=O)C1=C[C@@H]4CC5C(C)(C)OC(C/C=C(\\C)C(=O)O)(C4=O)[C@@]15O3)OC(C)(CCC=C(C)C)C=C2 (some centres unmarked) [ACETYL I[…]]", "Hs18S ΔCT": 1.57}
{"molecule": "COC(=O)C[C@H]1C(C)(C)C(=O)[C@@H]2CC3=C(CC[C@]4(C)C3=CC(=O)O[C@H]4c3ccoc3)[C@@]1(C)C2=O", "Hs18S ΔCT": -0.62}
{"molecule": "C=C[C@H]1C[N@@]2CC[C@H]1C[C@@H]2[C@@H](O)c1ccnc2ccccc12", "Hs18S ΔCT": 0.01}
{"molecule": "Cc1occc(=O)c1O", "Hs18S ΔCT": 0.20}
